Test system: Staphylococcus epidermidis
Format: cell-based
test.parameters: Se5 (Staphylococcus epidermidis)
parameter.measured: Antibiotic susceptibility

Here's what some known entries look like.
{"columns": ["chemical.string", "Antibiotic susceptibility"],
 "data": [
  ["CC[C@H]1OC(=O)[C@H](C)[C@@H](O[C@H]2C[C@@](C)(OC)[C@@H](O)[C@H](C)O2)[C@H](C)[C@@H](O[C@@H]2O[C@H](C)C[C@H](N(C)C)[C@H]2O)[C@](C)(O)C[C@@H](C)C(=O)[C@H](C)[C@@H](O)[C@]1(C)O", "R"],
  ["COc1c(N2C[C@@H]3CCCN[C@@H]3C2)c(F)cc2c(=O)c(C(=O)O)cn(C3CC3)c12", "R"],
  ["C[C@H]1c2cccc(O)c2C(=O)C2=C(O)[C@]3(O)C(=O)C(C(N)=O)=C(O)[C@@H](N(C)C)[C@@H]3[C@@H](O)[C@@H]21", "S"],
  ["CCC[C@@H]1C[C@@H](C(=O)N[C@@H]([C@H]2O[C@H](SC)[C@H](O)[C@@H](O)[C@H]2O)[C@H](C)Cl)N(C)C1", "R"],
  ["CC(=O)NC[C@H]1CN(c2ccc(N3CCOCC3)c(F)c2)C(=O)O1", "S"]
]}

Sample CN(C)c1cc(NC(=O)CNC(C)(C)C)c(O)c2c1C[C@H]1C[C@H]3[C@H](N(C)C)C(O)=C(C(N)=O)C(=O)[C@@]3(O)C(O)=C1C2=O — what was its Antibiotic susceptibility?
S

Sample C[C@H]1COc2c(N3CCN(C)CC3)c(F)cc3c(=O)c(C(=O)O)cn1c23 — what was its Antibiotic susceptibility?
R

###

Overview of reported CC50 across a group of compounds:
assay.remarks: Cytotoxicity assay (CC50), MTS
Type: cell-based, human
test.parameters: human, HepG2-derived hepatoblastoma cell line (HEPDES19), HEPDES19 cells

{"columns": ["chemical.string", "CC50"],
 "data": [
  ["O=C(Oc1cccccc1=O)c1cccc(Cl)c1", "> 50 µM"]
]}

Sample Cc1cc(O)c(O)c(=O)c(O)c1 — what was its CC50?
10 µM

Sample Cc1cc(O)c(=O)c(O)cc1C(=O)c1ccccc1O — what was its CC50?
< 50 µM

###

System: S. aureus ATCC strains and MRSA
Type: cell-based, Staphylococcus aureus
test.parameters: Sa15 (MRSA)

{"columns": ["chemical.string", "Antibiotic susceptibility"],
 "data": [
  ["C[C@H]1COc2c(N3CCN(C)CC3)c(F)cc3c(=O)c(C(=O)O)cn1c23", "R"],
  ["CN[C@H](CC(C)C)C(=O)N[C@H]1C(=O)N[C@@H](CC(N)=O)C(=O)N[C@H]2C(=O)N[C@H]3C(=O)N[C@H](C(=O)N[C@H](C(=O)O)c4cc(O)cc(O)c4-c4cc3ccc4O)[C@H](O)c3ccc(c(Cl)c3)Oc3cc2cc(c3O[C@@H]2O[C@H](CO)[C@@H](O)[C@H](O)[C@H]2O[C@H]2C[C@](C)(N)[C@H](O)[C@H](C)O2)Oc2ccc(cc2Cl)[C@H]1O", "S"],
  ["CCC[C@@H]1C[C@@H](C(=O)N[C@@H]([C@H]2O[C@H](SC)[C@H](O)[C@@H](O)[C@H]2O)[C@H](C)Cl)N(C)C1", "R"],
  ["CCCCCCCCCC(=O)N[C@@H](Cc1c[nH]c2ccccc12)C(=O)N[C@H](CC(N)=O)C(=O)N[C@@H](CC(=O)O)C(=O)N[C@@H]1C(=O)NCC(=O)N[C@@H](CCCN)C(=O)N[C@@H](CC(=O)O)C(=O)N[C@H](C)C(=O)N[C@@H](CC(=O)O)C(=O)NCC(=O)N[C@H](CO)C(=O)N[C@@H]([C@H](C)CC(=O)O)C(=O)N[C@@H](CC(=O)c2ccccc2N)C(=O)O[C@@H]1C", "S"]
]}

Taken from patent US12502362B2.
